# test_target: HLA-A*0206 (human)
# assay_overview: inhibition of 125I-labelled probe peptide binding to purified HLA; gel filtration
pIC50: −log10 of the molar value.

binder	pIC50
TVSGLQMAV (modifications not checked) [peptide 60.0213 (PAP.292.V9)]	6.71
